Entries annotated with measured TRPV1 blockage at 10 μM (% ± SD)
# target: rat TRPV1 channel (Rattus norvegicus)
# Construct: expressed in transfected cells; host or cells: SH-SY5Y (human neuroblastoma) stably expressing rat TRPV1, under puromycin selection
# assay comment: Calcium microfluorometry assay on TRPV1-SH-SY5Y cells, single concentration 10 μM
# Type: cell-based
# applied conditions: compound 10 μM before stimulation with 10 μM capsaicin, RR (10 μM Ruthenium Red) = 100%
readout name: TRPV1 blockage at 10 μM (% ± SD) (%)

| compound | endpoint unit | measurement |
| --- | --- | --- |
| C/C=C/C=C/C(=O)OCC(=O)NCc1cc(OC)c(O)cc1I [Ex-25] | % | 13.98 |
| CCCC(=O)OCC(=O)NCc1cc(OC)c(O)cc1I [Ex-17] | % | 14.44 |
| CCCCCCCC/C=C\CCCCCCCCCCCC(=O)OCC(=O)NCc1cc(OC)c(O)cc1I [Ex-49] | % | 34.94 |
| CCCCCCC(=O)OCC(=O)NCc1cc(OC)c(O)cc1I [Ex-27] | % | 21.80 |
| CCCCCCCCCCCCCCCCCC(=O)OCC(=O)NCc1cc(OC)c(O)cc1I [Ex-41] | % | 38.89 |

###

# target: rat TRPV1 channel (Rattus norvegicus)
# Construct: expressed in transfected cells; host or cells: SH-SY5Y (human neuroblastoma) stably expressing rat TRPV1, under puromycin selection
# assay comment: Dose response measurements (EC50/IC50), calcium microfluorometry on TRPV1-SH-SY5Y cells
# Format: cell-based
# applied conditions: TRPV1 activation; n=3 in 3 independent experiments
Known EC50 of a selection of molecules

| molecule | endpoint unit | EC50 |
| --- | --- | --- |
| COc1cc(CNC(=O)COC(=O)CC/C(C)=C/CC/C(C)=C/CC/C=C(\C)CCC=C(C)CCC=C(C)C)ccc1O (stereo in doubt) | µM | 0.04 |
| CCCCCCCCCCCC(=O)OCC(=O)NCc1ccc(O)c(OC)c1 | µM | 0.08 |
| CC(C)=CCCC(C)=CCC/C(C)=C/CC/C=C(\C)CC/C=C(\C)CCC(=O)OCC(=O)NCc1ccc(O)c(O)c1 (stereo in doubt) | µM | 0.015 |
| COc1cc(CNC(=O)COC(=O)/C=C(\C)CCC=C(C)C)ccc1O | µM | 0.28 |
| CC(C)=CCC/C(C)=C/C(=O)OCC(=O)NCc1ccc(O)c(O)c1 | µM | 0.11 |

###

# target: rat TRPV1 channel (Rattus norvegicus)
# Construct: expressed in transfected cells; host or cells: SH-SY5Y (human neuroblastoma) stably expressing rat TRPV1, under puromycin selection
# assay comment: Calcium microfluorometry assay on TRPV1-SH-SY5Y cells, single concentration 10 μM
# Assay type: cell-based
# applied conditions: compound 10 μM before stimulation with 10 μM capsaicin, RR (10 μM Ruthenium Red) = 100%
readout name: TRPV1 blockage at 10 μM (% ± SD) (%)

| compound | endpoint unit | measurement |
| --- | --- | --- |
| CCCCCCCCCCCC(=O)OCC(=O)NCc1cc(OC)c(O)cc1I [Ex-37] | % | 43.18 |
| CCCCCC[C@H](C/C=C\CCCCCCCC(=O)OCC(=O)NCc1cc(OC)c(O)cc1I)OC(=O)Cc1ccccc1 [Ex-47] | % | 63.29 |
| CCCCCCCCCCCCCCC(=O)OCC(=O)NCc1cc(OC)c(O)cc1I [Ex-39] | % | 21.82 |
| CCCCCC[C@@H](O)C/C=C\CCCCCCCC(=O)OCC(=O)NCc1cc(OC)c(O)cc1I [Ex-45] | % | 21.74 |
| CC(C)=CCC/C(C)=C/C(=O)OCC(=O)NCc1cc(O)c(O)cc1I [Ex-55] | % | 104.22 |
| CCCCCCCCC(=O)OCC(=O)NCc1cc(OC)c(O)cc1I [Ex-31] | % | 25.23 |
| CCCCC/C=C\C/C=C\C/C=C\C/C=C\CCCC(=O)OCC(=O)NCCc1cc(O)c(O)cc1I [Ex-65] | % | 6.71 |
| CCCCCCCC/C=C\CCCCCCCC(=O)OCC(=O)NCCc1cc(O)c(O)cc1I [Ex-63] | % | 1.13 |
| CCCCCCCC/C=C\CCCCCCCC(=O)OCC(=O)NCc1cc(OC)c(O)cc1I [Ex-43] | % | 45.68 |

###

# target: rat TRPV1 channel (Rattus norvegicus)
# Construct: expressed in transfected cells; host or cells: SH-SY5Y (human neuroblastoma) stably expressing rat TRPV1, under puromycin selection
# assay comment: Calcium microfluorometry assay on TRPV1-SH-SY5Y cells, single concentration 10 μM
# Assay type: cell-based
# applied conditions: compound 10 μM before stimulation with 10 μM capsaicin, RR (10 μM Ruthenium Red) = 100%
Just a reminder that ties go to rule not met: only TRPV1 blockage at 10 μM (% ± SD) strictly below 30% counts as rule met.

| compound | label |
| --- | --- |
| CCCCCCCC(=O)OCC(=O)NCc1cc(OC)c(O)cc1I | rule not met |
| CCCCCC(=O)OCC(=O)NCc1cc(OC)c(O)cc1I | rule met |
| COc1cc(CNC(=O)COC(=O)CC(C)C)c(I)cc1O | rule met |
| COc1cc(CNC(=O)COC(=O)CC/C(C)=C/CC/C(C)=C/CC/C=C(\C)CCC=C(C)CCC=C(C)C)c(I)cc1O (stereo in doubt) | rule not met |
| CCCCCCCCCC(=O)OCC(=O)NCc1cc(OC)c(O)cc1I | rule met |
| N.N.N.N.N.N.N.N.N.N.N.N.N.N.[Cl-].[Cl-].[Cl-].[Cl-].[Cl-].[Cl-].[O-2].[O-2].[Ru+3].[Ru+3].[Ru+4] [RR, Ruthenium Red, reference compound] | rule not met |
| CCCCC(=O)OCC(=O)NCc1cc(OC)c(O)cc1I | rule met |
| CC(C)=CCC/C(C)=C/C(=O)OCC(=O)NCCc1cc(O)c(O)cc1I | rule not met |

###

Measured IC50 by item
# target: rat TRPV1 channel (Rattus norvegicus, UniProt O35433)
# Construct: expressed in transfected cells; host or cells: SH-SY5Y (human neuroblastoma) stably expressing rat TRPV1, under puromycin selection
# Sequence (O35433 whole entry): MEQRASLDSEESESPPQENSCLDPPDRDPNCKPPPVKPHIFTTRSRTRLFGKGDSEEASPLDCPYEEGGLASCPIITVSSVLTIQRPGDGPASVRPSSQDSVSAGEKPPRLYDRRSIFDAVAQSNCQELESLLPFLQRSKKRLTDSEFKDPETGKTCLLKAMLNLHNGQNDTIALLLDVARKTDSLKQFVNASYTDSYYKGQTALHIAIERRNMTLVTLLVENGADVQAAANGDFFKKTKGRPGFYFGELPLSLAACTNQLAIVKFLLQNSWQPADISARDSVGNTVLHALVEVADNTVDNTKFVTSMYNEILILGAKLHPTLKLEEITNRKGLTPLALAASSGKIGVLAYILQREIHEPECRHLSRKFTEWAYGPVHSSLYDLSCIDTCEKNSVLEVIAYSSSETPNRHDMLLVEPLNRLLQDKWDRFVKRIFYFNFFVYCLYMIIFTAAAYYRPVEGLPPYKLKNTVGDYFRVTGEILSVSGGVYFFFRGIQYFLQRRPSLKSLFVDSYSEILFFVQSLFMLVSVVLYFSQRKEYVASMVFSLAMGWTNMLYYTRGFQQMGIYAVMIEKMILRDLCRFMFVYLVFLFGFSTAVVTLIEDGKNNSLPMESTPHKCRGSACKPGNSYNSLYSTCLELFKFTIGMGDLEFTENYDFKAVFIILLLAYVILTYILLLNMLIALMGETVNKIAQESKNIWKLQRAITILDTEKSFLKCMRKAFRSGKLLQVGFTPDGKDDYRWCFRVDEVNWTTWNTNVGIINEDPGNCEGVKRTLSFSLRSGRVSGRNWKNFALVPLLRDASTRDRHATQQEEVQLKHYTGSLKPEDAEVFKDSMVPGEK
# assay comment: Dose response measurements (EC50/IC50), calcium microfluorometry on TRPV1-SH-SY5Y cells
# Assay type: cell-based
# applied conditions: TRPV1 blockage; n=3 in 3 independent experiments

| smiles | IC50 (µM) |
| --- | --- |
| CC(C)=CCC/C(C)=C/C(=O)OCC(=O)NCc1cc(O)c(O)cc1I | 6.82 |
| CCCCCCCCCCCC(=O)OCC(=O)NCc1cc(OC)c(O)cc1I | 0.86 |

###

# TRPV1 activation at 10 μM (% ± SD) annotations
# target: rat TRPV1 channel (Rattus norvegicus, UniProt O35433)
# Construct: expressed in transfected cells; host or cells: SH-SY5Y (human neuroblastoma) stably expressing rat TRPV1, under puromycin selection
# assay comment: Calcium microfluorometry assay on TRPV1-SH-SY5Y cells, single concentration 10 μM
# Assay type: cell-based
# applied conditions: compound 10 μM, Fluo-4 NW fluorescence, Cap (10 μM capsaicin) = 100%
# Method: The activity of the compounds was determined on TRPV1 expressing cells (TRPV1-SH-SY5Y) by Calcium microfluorometry assay. SH-SY5Y cells stably expressing rat TRPV1 channel (SH-SY5Y-TRPV1) were grown in Earle's minimum essential medium (MEM) containing 10% (v/v) of FCS, 1% nonessential amino acids, 2 mM L-glutamine, 100 μg/ml streptomycin, 100 U/ml penicillin, and 0.4 μg/ml puromycin in a humidity-controlled incubator with 5% CO2 and at 37° C. […]
readout name: TRPV1 activation at 10 μM (% ± SD) (%)

| compound | measurement |
| --- | --- |
| CCCCCCCC(=O)OCC(=O)NCc1ccc(O)c(OC)c1 [Ex-28] | 54.08 |
| CCCCCCCCCCCC(=O)OCC(=O)NCc1ccc(O)c(OC)c1 [Ex-36] | 74.80 |
| CCCCCCCC/C=C\CCCCCCCC(=O)OCC(=O)NCCc1ccc(O)c(O)c1 [Ex-62] | 78.48 |
| COc1cc(CNC(=O)COC(=O)/C=C(\C)CCC=C(C)C)ccc1O [Ex-32] | 75.90 |
| CCCCCCCCC(=O)OCC(=O)NCc1ccc(O)c(OC)c1 [Ex-30] | 68.45 |
| CCCCCCC(=O)OCC(=O)NCc1ccc(O)c(OC)c1 [Ex-26] | 74.41 |
| CC(C)=CCCC(C)=CCC/C(C)=C/CC/C=C(\C)CC/C=C(\C)CCC(=O)OCC(=O)NCc1ccc(O)c(O)c1 (stereo in doubt) [Ex-56] | 83.71 |
| CCCCCCCC/C=C\CCCCCCCC(=O)OCC(=O)NCc1ccc(O)c(OC)c1 [Ex-42] | 77.19 |
| CCCCCC[C@@H](O)C/C=C\CCCCCCCC(=O)OCC(=O)NCc1ccc(O)c(OC)c1 [Ex-44] | 60.84 |
| CCCCC/C=C\C/C=C\C/C=C\C/C=C\CCCC(=O)OCC(=O)NCc1ccc(O)c(OC)c1 [Ex-50] | 73.80 |
| CC(C)=CCC/C(C)=C/C(=O)OCC(=O)NCCc1ccc(O)c(O)c1 [Ex-58] | 88.12 |
| CCCCCCCCCCCCCCCCCC(=O)OCC(=O)NCc1ccc(O)c(OC)c1 [Ex-40] | 54.74 |
| CCCCCCCC/C=C\CCCCCCCCCCCC(=O)OCC(=O)NCc1ccc(O)c(OC)c1 [Ex-48] | 47.40 |
| CC(C)=CCC/C(C)=C/C(=O)OCC(=O)NCc1ccc(O)c(O)c1 [Ex-54] | 77.42 |
| CCCCCC[C@H](C/C=C\CCCCCCCC(=O)OCC(=O)NCc1ccc(O)c(OC)c1)OC(=O)Cc1ccccc1 [Ex-46] | 33.16 |
| CCCCC/C=C\C/C=C\C/C=C\C/C=C\CCCC(=O)OCC(=O)NCCc1ccc(O)c(O)c1 [Ex-64] | 79.05 |
| CCCCCC(=O)OCC(=O)NCc1ccc(O)c(OC)c1 [Ex-22] | 73.32 |
| C/C=C/C=C/C(=O)OCC(=O)NCc1ccc(O)c(OC)c1 [Ex-24] | 75.59 |
| CCCCCCCCCC(=O)OCC(=O)NCc1ccc(O)c(OC)c1 [Ex-34] | 47.91 |
